# assay name: Chemical stability of the compound in buffer solution assessed as compound remaining at pH 1 to 9 after 24 hrs
# Type: physicochemical
# run parameters: read-out: Stability
measurement label: remaining at 24 h

Inquiry: Report remaining at 24 h for CC(C)[C@@H](Nc1ccc(CNC(=O)[C@@H]2SCCN2C(=O)C[C@H](N)Cc2cc(F)c(F)cc2F)cc1)C(=O)O.Cl
Reply text: > 90%
